Test system: HOP-92
measurement_notes: NCI tumour cell line growth inhibition, 48 h
Activity calls are given as the source filed them. Cut-off read from the data, not from the text of the source: active = GI50 up to about 1.1 µM and inactive = higher.
reported_endpoint: GI50

[Q] Query GI50 for COc1ccc(/C=C2\CCC(CCN(C)C)(C3=CCCC3)C2=O)cc1Br (centres undefined)
[A] 2.97 µM (inactive)

[Q] Hello, please tell me recorded GI50 for this one: C/N=C(N)/N=C(\N)Nc1cc2ccccc2c2ccccc12
[A] 14.9 µM (inactive)

[Q] For the molecule O=C1C=C(c2ccccc2)O/C1=C/C(=O)c1ccc(Cl)cc1 , give its measured GI50 value.
[A] 19.2 µM (inactive)

[Q] Provide only the value of recorded GI50 for CC1CC[C@@]2(OC1)OC1C[C@H]3[C@@H]4C/C(=N\N(C)C)[C@@]5(O)CC(O)CC[C@]5(C)[C@H]4CC[C@]3(C)C1[C@@H]2C (some centres undefined)
[A] 98.2 µM (inactive)

[Q] // Input: COC(=O)C1C(=O)C(C(=O)OC)C2CCC1N2C (centres undefined) . Output its GI50 only.
[A] 16 µM (inactive)

[Q] Please look at this molecule and report its GI50: O=C(O)c1ccccc1[Se][Se]c1ccccc1C(=O)O
[A] 39 µM (inactive)

[Q] Give the reported GI50 for this molecule. CO[C@H]1CC[C@]2(C)C3=CC[C@@]4(C)C(CC[C@@H]4C(C)CC[C@@H](C)C(C)C)C(=CCC2C1)O3 (some centres undefined)
[A] > 22.7 µM (inactive)

[Q] Give the value of GI50 reported for the following: O=C1C(F)=CC(COC(c2ccccc2)(c2ccccc2)c2ccccc2)OC1n1cc(F)c(=O)[nH]c1=O (centres undefined)
[A] 2.11 µM (inactive)

[Q] Respond only with GI50 recorded for CC(=O)OC[C@@]1(C)[C@@H]2[C@@H]3[C@@]4(CO[C@]3(C)C(=O)[C@@]3(OC(C)=O)C[C@H](C)[C@H](OC(C)=O)[C@@H]3[C@H]4OC(C)=O)[C@H](OC(=O)c3ccccc3)C[C@@H]21
[A] > 100 µM (inactive)

[Q] Give GI50 for the following molecule: COc1cc2c(cc1OCc1ccccc1)NC(=O)[C@@H]1C[C@@H](O)CN1C2=O
[A] > 100 µM (inactive)

[Q] Retrieve GI50 measured for COC(=O)N/N=C/c1oc(-c2ccccc2)c(-c2ccccc2)c1[N+](=O)[O-] and print it.
[A] > 100 µM (inactive)

[Q] Report GI50 for O=C1OC(CCCl)(c2ccccc2)CC1CN1CCOCC1 (centres undefined)
[A] 16.6 µM (inactive)

[Q] Identify GI50 associated with the molecule OCCc1ccsc1-c1sc(-c2cc(CCO)c(-c3sccc3CCO)s2)cc1CCO
[A] 11.6 µM (inactive)

[Q] Provide measured GI50 value, entry: COC(=O)[C@@]12CC3CN(Cc4c1[nH]c1ccccc41)C2CC3=O
[A] 26.7 µM (inactive)

[Q] Return reported GI50. Input molecule: BrC(/C=N/Nc1nnc(-c2ccccc2)c(-c2ccccc2)n1)C(Br)c1ccccc1 (centres undefined)
[A] 20.3 µM (inactive)

[Q] Tell me measured GI50 for C=CC(OC(=O)C(C)C)c1ccc(OC(=O)C(C)C)cc1 (centres undefined) please.
[A] 16.7 µM (inactive)

[Q] Supply recorded GI50 for CC(=O)C1=CN=C2C(=O)N(c3ccccc3)N(C)C12C (centres undefined) here.
[A] > 100 µM (inactive)

[Q] For the molecule CC(C)(C)OC(=O)N1C/C=C\C(=O)C2(OCCO2)c2ccccc21 , give its measured GI50 value.
[A] 15.9 µM (inactive)

[Q] Item N=c1oc2ccccc2cc1C(=O)NC12CC3CC(CC(C3)C1)C2 : provide GI50
[A] 25.8 µM (inactive)

[Q] Please indicate GI50 recorded for CN(C)c1nc(N(C)C)sc(=O)n1
[A] > 100 µM (inactive)

[Q] Complete the entry with GI50 for CC1(C)C(/C=N\O)=[N+]([O-])C(C)(C)N1O
[A] > 100 µM (inactive)

[Q] Supply GI50 value. Item: CCCC(C)NC1=C(NC(C)=O)C(=O)c2ccccc2C1=O (centres undefined)
[A] 47.9 µM (inactive)

[Q] Please list GI50 recorded for the molecule COc1ccc(C(=O)Cn2c(C(=O)/C=C/c3ccco3)nc3ccccc32)cc1
[A] 51.4 µM (inactive)

[Q] Could you please provide reported GI50 for C1=C[C@@H]2c3ccc4cnccc4c3NC[C@@H]2C1 ? Thanks!
[A] 75.2 µM (inactive)

[Q] Give me measured GI50, please, for this molecule: COC(=O)CCC(=O)NC1=C(Nc2ccccc2)C(=O)c2ccccc2C1=O
[A] 15 µM (inactive)

[Q] Give the value of GI50 reported for the following: O=C1C[S+]([O-])C23c4cc5ccccc5n4CCC2CCCN13 (centres undefined)
[A] > 100 µM (inactive)

[Q] Indicate its recorded GI50; the molecule in question is O=c1oc(-c2ccccc2)c(-c2ccccc2)n1-c1ccc(Br)cc1
[A] 35.4 µM (inactive)

[Q] Supply GI50 value. Item: CCOC(=O)/C(I)=C/c1cc(OC)c(OC)c(OC)c1
[A] 11.6 µM (inactive)

[Q] Give GI50 for the following molecule: CN(C)CCCC12CCCCC1=Nc1ccccc12 (centres undefined)
[A] > 100 µM (inactive)

[Q] Identify measured GI50 corresponding to O=C(/N=C(/Nc1ccccc1)SCCS/C(=N\C(=O)c1ccccc1)Nc1ccccc1)c1ccccc1
[A] 16.8 µM (inactive)

[Q] Retrieve GI50 measured for CCCC(Sc1ccccc1)P(=O)(c1ccccc1)c1ccccc1 (centres undefined) and print it.
[A] 21.8 µM (inactive)

[Q] Tell me measured GI50 for CCOC(=O)[C@@]12NN=N[C@@H]1[C@H]1CO[C@H](c3ccccc3)N1C2=O please.
[A] 1.64 µM (inactive)

[Q] For the molecule CCc1cccc(C)c1NC(=O)CCc1nnc(SC)o1 , give its reported GI50.
[A] > 100 µM (inactive)

[Q] Hello, please tell me recorded GI50 for this one: O=C(/C=C\c1ccc(Cl)cc1Cl)c1cccs1
[A] 26.4 µM (inactive)
